Kindly state pIC50 for each of the entries shown.
Target: (recombinant) catalytic domain of human Bub1 (amino acids 704-1085) (Homo sapiens (Human), UniProt O43683)
Sequence (O43683 704-1085): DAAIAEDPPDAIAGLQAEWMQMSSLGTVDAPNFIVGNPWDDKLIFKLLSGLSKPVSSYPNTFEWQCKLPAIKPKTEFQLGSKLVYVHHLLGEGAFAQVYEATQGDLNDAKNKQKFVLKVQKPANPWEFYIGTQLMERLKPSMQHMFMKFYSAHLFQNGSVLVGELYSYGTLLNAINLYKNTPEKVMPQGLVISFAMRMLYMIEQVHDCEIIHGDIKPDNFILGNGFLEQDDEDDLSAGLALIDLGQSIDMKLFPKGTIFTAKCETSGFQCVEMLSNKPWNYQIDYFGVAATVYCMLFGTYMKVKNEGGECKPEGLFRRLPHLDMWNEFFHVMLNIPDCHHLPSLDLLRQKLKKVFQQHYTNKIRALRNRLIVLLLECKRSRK
Experiment: Bub1 kinase assay (TR-FRET)
Details: ATP 10 μM final, peptide substrate 1 μM final, 60 min at 22° C., read-out: Biological Assay: Bub1 kinase assay median IC50
Protocol: Examples were tested in selected biological assays one or more times. When tested more than once, data are reported as either average values or as median values, wherein • the average value, also referred to as the arithmetic mean value, represents the sum of the values obtained divided by the number of times tested, and • the median value represents the middle number of the group of values when ranked in ascending or descending order. […]
Answers are plain numbers, as −log10 of the molar value.

These recorded examples may help you get a feel for the data.
Prompt: Specify measured pIC50 for CC1(C)CC(=O)c2c([nH]c(-c3ccnc(C(F)F)c3)c2Nc2ccccc2)C1 [Example 400] .
Completion: 6.80

Prompt: Look up and state reported pIC50 for CC(=O)Nc1cc(-c2[nH]c3c(c2Nc2ccccc2)C(=O)CC(C)(C)C3)ccn1 [Example 36]
Completion: 7.58

Prompt: Note down pIC50 recorded for CC1(C)CC(=O)c2c([nH]c(-c3ccncc3)c2Nc2cc(F)cc(F)c2)C1 [Example 31]
Completion: 8.26

Prompt: Report pIC50, nothing else, for this molecule: CCOc1ccccc1Nc1c(-c2ccncc2)[nH]c2c1C(=O)CC(C)(C)C2 [Example 128]
Completion: 6.24

Count: 4. Required value per item: pIC50.
1. CC1(C)CC(=O)c2c([nH]c(-c3ccncc3)c2Nc2cc(F)cc(Cl)c2)C1 [Example 19]
2. CS(=O)(=O)CCn1c2c(c(Nc3ccccc3)c1-c1ccncc1)C(=O)CCC2 [Example 176]
3. O=C1CCCc2[nH]c(-c3ccnc(NC(=O)[C@H]4C[C@@H]4F)c3)c(Nc3ccccc3)c21 [Example 250]
4. CC1(C)CC(=O)c2c([nH]c(-c3ccncc3OCC(F)(F)F)c2Nc2ccccc2)C1 [Example 412]

Completion:
1: 7.71; 2: 5.69; 3: 8.00; 4: 7.55

I have 2 molecules here; please give me pIC50 for each one.
1. CC1(C)CC(=O)c2c([nH]c(-c3ccncn3)c2Nc2ccccc2)C1 [Example 5]
2. Cn1cc(C(=O)Nc2cc(-c3[nH]c4c(c3Nc3ccccc3)C(=O)CCC4)ccn2)cn1 [Example 447]

Completion:
1. 7.60
2. 7.95

----------
Target: (recombinant) catalytic domain of human Bub1 (amino acids 704-1085) (Homo sapiens (Human), UniProt O43683)
Test: Bub1 kinase assay (TR-FRET)
Conditions: ATP 10 μM final, peptide substrate 1 μM final, 60 min at 22° C., read-out: Biological Assay: Bub1 kinase assay median IC50
Protocol: Examples were tested in selected biological assays one or more times. When tested more than once, data are reported as either average values or as median values, wherein • the average value, also referred to as the arithmetic mean value, represents the sum of the values obtained divided by the number of times tested, and • the median value represents the middle number of the group of values when ranked in ascending or descending order. […]
ATTRIBUTE MEASURED: IC50 (nM)
Numbers only, in nM.

Answered examples (2):
Prompt: Look up and state reported IC50 for O=C(Nc1ccncc1)Nc1cc(-c2[nH]c3c(c2Nc2ccccc2)C(=O)CCC3)ccn1
Completion: 10.1

Prompt: Please give the documented IC50 of CC1(C)CC(=O)c2c([nH]c(-c3ccnc(NC(=O)c4cscn4)c3)c2Nc2ccccc2)C1
Completion: 6.63

***
Prompt: Complete the entry with IC50 for CC1(C)CC(=O)c2c([nH]c(-c3ccnc(NC(=O)COCc4ccccc4)c3)c2Nc2ccccc2)C1
Completion: 8.04

----------
Provide the reported pIC50 of each item.
Molecular target: (recombinant) catalytic domain of human Bub1 (amino acids 704-1085) (Homo sapiens (Human), UniProt O43683)
Assay: Bub1 kinase assay (TR-FRET)
Type: biochemical
Settings: ATP 10 μM final, peptide substrate 1 μM final, 60 min at 22° C., read-out: Biological Assay: Bub1 kinase assay median IC50
Method: Examples were tested in selected biological assays one or more times. When tested more than once, data are reported as either average values or as median values, wherein • the average value, also referred to as the arithmetic mean value, represents the sum of the values obtained divided by the number of times tested, and • the median value represents the middle number of the group of values when ranked in ascending or descending order. […]
One number for each entry, as −log10 of the molar value.

Solved cases (2 shown):
Prompt: Item CC1(C)CC(=O)c2c([nH]c(-c3ccncc3)c2Nc2cccnc2)C1 : provide pIC50
Completion: 6.71

Prompt: Give reported pIC50 value for O=C(COCC(F)(F)F)Nc1cc(-c2[nH]c3c(c2Nc2ccccc2)C(=O)CCC3)ccn1
Completion: 7.84

Turning to the following molecule.
Prompt: Identify the reported pIC50 for the following entry. CC1CC(=O)c2c(Nc3ccccc3)c(-c3ccncc3)n(C)c2C1 (stereo not drawn)
Completion: 7.00

----------
Molecular target: (recombinant) catalytic domain of human Bub1 (amino acids 704-1085) (Homo sapiens (Human))
Assay: Bub1 kinase assay (TR-FRET)
Settings: ATP 10 μM final, peptide substrate 1 μM final, 60 min at 22° C., read-out: Biological Assay: Bub1 kinase assay median IC50
ATTRIBUTE MEASURED: IC50 (nM)
One number for each entry, in nM.

Example compounds with recorded IC50:
Prompt: State its IC50: Cc1nnc(COCC(=O)Nc2cc(-c3[nH]c4c(c3Nc3ccccc3)C(=O)CCC4)ccn2)s1 [Example 356]
Completion: 7.91

Prompt: Please give the documented IC50 of CC1(C)CC(=O)c2c([nH]c(-c3ccncc3)c2Nc2cccc(Oc3ccccc3)c2)C1 [Example 421]
Completion: 200

Prompt: Determine from records and report IC50 for O=C1CCCc2[nH]c(-c3ccnc(NCc4cscn4)c3)c(Nc3ccccc3)c21 [Example 501]
Completion: 96.7

Prompt: State its IC50: CCn1c2c(c(Nc3ccccc3)c1-c1ccncc1)C(=O)CCC2 [Example 170]
Completion: 40.2

Prompt: Consider the compound CC1(C)CC(=O)c2c([nH]c(-c3ccncc3)c2Nc2ccccc2)C1 [Example 1] . State its measured IC50.
Completion: 6.25

Prompt: Kindly indicate its recorded IC50. Item: O=C(Nc1cc(-c2[nH]c3c(c2Nc2ccccc2)C(=O)CCC3)ccn1)c1ccns1 [Example 280]
Completion: 10.3

Go through the items and report each one's IC50.
1. CC(=O)c1cccc(Nc2c(-c3ccncc3)[nH]c3c2C(=O)CC(C)(C)C3)c1 [Example 113]
2. C=CCOCC(=O)Nc1cc(-c2[nH]c3c(c2Nc2ccccc2)C(=O)CCC3)ccn1 [Example 335]
3. CC1(C)CC(=O)c2c([nH]c(-c3ccnc(NC(=O)[C@H]4C[C@H]4F)c3)c2Nc2ccccc2)C1 (racemic) [Example 257]
4. CC1(C)CC(=O)c2c([nH]c(-c3ccncc3)c2Nc2cc(-c3ccccc3)ccn2)C1 [Example 422]
5. O=C1CCCc2[nH]c(-c3ccnc(NCc4cccnc4)c3)c(Nc3ccccc3)c21 [Example 372]
6. CC1(C)CC(=O)c2c([nH]c(-c3ccncc3)c2Nc2ccccc2-c2ccccc2)C1 [Example 160]

Completion:
174
9.9
59.7
330
9530
204

----------
Molecular target: (recombinant) catalytic domain of human Bub1 (amino acids 704-1085) (Homo sapiens (Human), UniProt O43683)
Assay: Bub1 kinase assay (TR-FRET)
Details: ATP 10 μM final, peptide substrate 1 μM final, 60 min at 22° C., read-out: Biological Assay: Bub1 kinase assay median IC50
Exercise: state measured pIC50 for each of the compounds provided.
One number for each entry, as −log10 of the molar value.

Illustrative cases are given below, each with its answer.
Prompt: Provide only the value of recorded pIC50 for O=C1CCCc2[nH]c(-c3ccnc(NC(=O)C4CC4)c3)c(Nc3ccc(F)c(F)c3)c21
Completion: 7.08

Prompt: Give the measured pIC50 for Cc1ccc(Nc2c(-c3ccncc3)[nH]c3c2C(=O)CC(C)(C)C3)cc1
Completion: 6.83

Prompt: Annotate the compound CC1(C)CC(=O)c2c([nH]c(-c3ccnc(NC(=O)c4ccc(F)cc4)c3)c2Nc2ccccc2)C1 with its measured pIC50.
Completion: 8.02

Prompt: Indicate its recorded pIC50; the compound in question is Cn1ncnc1COCC(=O)Nc1cc(-c2[nH]c3c(c2Nc2ccccc2)C(=O)CCC3)ccn1
Completion: 7.96

Prompt: For CC1(C)CC(=O)c2c([nH]c(-c3ccnc4[nH]ncc34)c2Nc2ccccc2)C1 , write its pIC50.
Completion: 7.51

Prompt: Return the recorded pIC50 value; entry: CC1(C)CC(=O)c2c([nH]c(-c3c(F)cncc3F)c2Nc2ccccc2)C1
Completion: 6.73

Prompt: Query pIC50 for CCOc1cnccc1-c1[nH]c2c(c1Nc1ccccc1)C(=O)CC(C)(C)C2
Completion: 7.93

Prompt: Note down pIC50 recorded for CC1(C)CC(=O)c2c([nH]c(-c3ccncc3OCC(F)F)c2Nc2ccccc2)C1
Completion: 8.19

Prompt: Identify measured pIC50 corresponding to O=C1CCCc2[nH]c(-c3ccncc3OCC(F)F)c(Nc3ccccc3)c21
Completion: 7.27

Prompt: Dear colleague, please send me the reported pIC50 for CC1(C)CC(=O)c2c([nH]c(-c3ccncc3)c2Nc2cccc(Cc3ccccc3)c2)C1 when you can.
Completion: 6.55

Now turn to the next compound.
Prompt: Give recorded pIC50. Cn1cc(NC(=O)Nc2cc(-c3[nH]c4c(c3Nc3ccccc3)C(=O)CC(C)(C)C4)ccn2)cn1
Completion: 8.34

meta.source: patent US10428044B2
